Target: T1, P6-AA-12HGe-M
T1 chain: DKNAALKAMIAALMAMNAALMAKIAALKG
Experiment: two-hybrid library CCmax;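 further: natural log of median RNA to DNA barcode read ratio; higher means stronger binding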
Settings: mean of both orientations
So I've got a bunch of binders here, and I need their interaction score values.

Problem: Report interaction score for DENAALEAYIAALYAYNAALYAEIAALEG [P5-AA-12HGe-Y] please.
Solution: 0.0241

Problem: Again, but for DENAALEATIAALTATNAALTAEIAALEG [P5-AA-12HGe-T]
Solution: -0.283

Problem: Again, but for DENAALEADIAALDADNAALDAEIAALEG [P5-AA-12HGe-D]
Solution: -2.09

Problem: Again, but for DENAALEASIAALSASNAALSAEIAALEG [P5-AA-12HGe-S]
Solution: -1.66

Problem: Again, but for DENAALEARIAALRARNAALRAEIAALEG [P5-AA-12HGe-R]
Solution: -0.376
